Attribute: Percentage of motility inhibition 0 h
- Test system: C. elegans
- conditionNotes: Table S2, C. elegans SS assay, 110 μM, 0 h, averages of 4 data points
resultType: Percentage of motility inhibition 0 h

>  <molecule>
C=CCCCCCCCCC(=O)[O-].C=CCCCCCCCCC(=O)[O-].[Zn+2] [10‐Undecenoic acid (zinc salt)]

>  <dataValue>
43%

$$$$
>  <molecule>
CC1(COC(=O)c2ccccc2)CCC2(C)CCC3(C)C4=CCC5C(C)(CCC(OC(=O)c6ccccc6)C5(C)C)C4=CCC3(C)C2C1 (centres unmarked)

>  <dataValue>
15%

$$$$
>  <molecule>
Cc1ncc([N+](=O)[O-])n1CC(O)CCl (centres unmarked)

>  <dataValue>
27%

$$$$
>  <molecule>
C[C@@H]1O[C@@H](O[C@H]2[C@H](O)[C@@H](O)[C@H](OC[C@H]3O[C@@H](OC(=O)[C@]45CCC(C)(C)C[C@H]4C4=CC[C@@H]6[C@@]7(C)CC[C@H](O[C@@H]8OC[C@H](O)[C@H](O)[C@H]8O)[C@@](C)(CO)[C@@H]7CC[C@@]6(C)[C@]4(C)CC5)[C@H](O)[C@@H](O)[C@@H]3O)O[C@@H]2CO)[C@H](O)[C@H](O)[C@H]1O [Hederacoside D]

>  <dataValue>
2%

$$$$
>  <molecule>
O=C(O)[C@H]1O[C@@H](Oc2cc(-c3cc(=O)c4c(O)cc(O)cc4o3)ccc2O)[C@H](O)[C@@H](O)[C@@H]1O [Luteolin‐3‐O‐beta‐D‐glucuronide]

>  <dataValue>
0%

$$$$
>  <molecule>
COc1ccc(/C=C/C(=O)c2ccc(OC)cc2)cc1

>  <dataValue>
24%

$$$$
>  <molecule>
CC/C=C\C/C=C\C/C=C\CCCCCCCC(=O)NCc1ccccc1 [N‐Benzyllinolenamide]

>  <dataValue>
2%

$$$$
>  <molecule>
CC[C@@]1(O)C(=O)OCc2c1cc1n(c2=O)Cc2cc3c(CN(C)C)c(O)ccc3nc2-1.Cl [Topotecan (Hydrochloride)]

>  <dataValue>
5%

$$$$
>  <molecule>
C[C@@H]1CC[C@]2(C(=O)O)CC[C@]3(C)C(=CC[C@@H]4[C@@]5(C)C[C@@H](O)[C@H](O)C(C)(C)[C@@H]5CC[C@]43C)[C@@H]2[C@]1(C)O

>  <dataValue>
3%

$$$$
>  <molecule>
COc1cc2c(cc1O)[C@@H](Cc1ccc(O)c(Oc3ccc(C[C@@H]4c5cc(OC)c(OC)cc5CCN4C)cc3)c1)N(C)CC2

>  <dataValue>
23%

$$$$
>  <molecule>
CC(=O)O[C@@]12CO[C@@H]1C[C@H](O)[C@@]1(C)C(=O)[C@H](O)C3=C(C)[C@@H](O)C[C@@](O)([C@@H](OC(=O)c4ccccc4)[C@H]21)C3(C)C

>  <dataValue>
4%

$$$$
>  <molecule>
CC1(C)CCC2(C(=O)O)C(O)CC3(C)C(=CCC4C5(C)CC(O)C(O)C(C)(CO)C5CCC43C)C2C1 (centres unmarked)

>  <dataValue>
3%

$$$$
>  <molecule>
CC1(C)S[C@@H]2[C@H](NC(=O)COc3ccccc3)C(=O)N2[C@H]1C(=O)[O-].[K+]

>  <dataValue>
23%

$$$$
>  <molecule>
CC(=O)O[C@@H](C[C@@H](C)C1=C2C[C@H](O)[C@H]3[C@@]4(C)CCC(=O)C(C)(C)[C@@H]4CC[C@]3(C)[C@@]2(C)CC1=O)[C@H]1OC1(C)C [Alisol C 23-acetate]

>  <dataValue>
0%

$$$$
>  <molecule>
CCCCCC(=O)Oc1c(Br)cc(Br)cc1Br [2,4,6‐Tribromophenyl caproate]

>  <dataValue>
48%

$$$$
>  <molecule>
CC(C)=CCc1c(-c2ccc(O)cc2O)oc2c(CC=C(C)C)c(O)cc(O)c2c1=O

>  <dataValue>
32%

$$$$
>  <molecule>
CC(C)CCC[C@@H](C)[C@H]1CC[C@H]2[C@@H]3C(=O)C=C4C[C@@H](O)CC[C@]4(C)[C@H]3CC[C@]12C

>  <dataValue>
1%

$$$$
>  <molecule>
COc1cc2c(cc1OC)[C@H]1[C@@H](C)c3ccc(OC)c(OC)c3CN1CC2

>  <dataValue>
0%

$$$$
>  <molecule>
C[C@H]1CC[C@H]2[C@H](C)[C@H]3CC[C@@H]4[C@@H](C[C@H]5[C@H]4CC(=O)[C@H]4C[C@@H](O)CC[C@@]45C)[C@@H]3CN2C1

>  <dataValue>
0%

$$$$
>  <molecule>
NC(N)=O

>  <dataValue>
10%

$$$$
>  <molecule>
CC(C)(O)[C@H]1CC[C@@](C)([C@H]2[C@@H](O)C[C@@]3(C)[C@@H]4C[C@H](O)[C@H]5C(C)(C)[C@@H](O)CC[C@@]56C[C@@]46CC[C@]23C)O1

>  <dataValue>
22%

$$$$
>  <molecule>
CO/N=C(\C(=O)N[C@@H]1C(=O)N2C(C(=O)OCOC(=O)C(C)(C)C)=C(/C=C\c3scnc3C)CS[C@H]12)c1csc(N)n1

>  <dataValue>
36%

$$$$
>  <molecule>
O=C1Cc2cc(O)ccc2N1 [5‐Hydroxyoxindole]

>  <dataValue>
15%

$$$$
>  <molecule>
CC1(C)CCC[C@]2(C)[C@H]3CC(=O)O[C@]3(C)CC[C@@H]12 [Sclareolide]

>  <dataValue>
1%

$$$$
>  <molecule>
C=C1C(=O)O[C@@H]2/C=C(/C)C(OC(C)=O)C/C=C(/C=O)CC(OC(=O)/C(C)=C/CO)[C@@H]12 (some centres unmarked) [Eupalinolide O]

>  <dataValue>
1%

$$$$
>  <molecule>
Clc1ccc(COC(Cn2ccnc2)c2ccc(Cl)cc2Cl)c(Cl)c1.O=[N+]([O-])O (centres unmarked) [Miconazole (nitrate)]

>  <dataValue>
26%

$$$$
